Molecular target: Tyrosine-protein kinase JAK1 (Homo sapiens)
Sequence (P23458 whole entry): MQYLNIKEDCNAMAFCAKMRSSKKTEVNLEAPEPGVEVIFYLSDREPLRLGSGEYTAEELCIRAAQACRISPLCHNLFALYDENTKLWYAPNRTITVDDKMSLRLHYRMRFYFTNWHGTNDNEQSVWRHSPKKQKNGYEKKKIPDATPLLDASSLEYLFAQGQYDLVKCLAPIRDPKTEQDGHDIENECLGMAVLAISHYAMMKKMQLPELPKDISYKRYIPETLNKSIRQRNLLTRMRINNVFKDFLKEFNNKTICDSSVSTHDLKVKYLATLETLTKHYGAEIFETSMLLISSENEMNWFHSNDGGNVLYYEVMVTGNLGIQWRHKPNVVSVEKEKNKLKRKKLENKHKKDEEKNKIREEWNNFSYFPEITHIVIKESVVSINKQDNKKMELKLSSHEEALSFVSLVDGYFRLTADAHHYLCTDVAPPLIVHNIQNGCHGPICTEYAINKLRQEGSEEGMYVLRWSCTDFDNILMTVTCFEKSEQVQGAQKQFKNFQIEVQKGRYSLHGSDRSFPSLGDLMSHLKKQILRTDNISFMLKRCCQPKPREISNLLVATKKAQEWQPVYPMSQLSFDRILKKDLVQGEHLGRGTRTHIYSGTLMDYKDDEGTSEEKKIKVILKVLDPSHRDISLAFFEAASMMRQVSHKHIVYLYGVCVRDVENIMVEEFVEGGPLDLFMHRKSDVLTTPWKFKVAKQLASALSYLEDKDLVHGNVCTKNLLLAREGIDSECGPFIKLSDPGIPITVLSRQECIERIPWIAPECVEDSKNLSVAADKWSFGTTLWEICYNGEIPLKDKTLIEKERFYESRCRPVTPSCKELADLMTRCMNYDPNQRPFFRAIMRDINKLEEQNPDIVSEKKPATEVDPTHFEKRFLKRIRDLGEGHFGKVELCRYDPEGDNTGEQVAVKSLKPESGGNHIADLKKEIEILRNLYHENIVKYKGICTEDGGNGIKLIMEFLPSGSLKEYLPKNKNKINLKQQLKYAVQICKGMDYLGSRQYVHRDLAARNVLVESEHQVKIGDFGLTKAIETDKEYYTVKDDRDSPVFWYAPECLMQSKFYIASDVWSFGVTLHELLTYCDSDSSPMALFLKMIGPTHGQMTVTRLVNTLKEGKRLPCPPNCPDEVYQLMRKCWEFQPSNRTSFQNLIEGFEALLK
Assay Metric: pIC50
In simple prose, pIC50 is minus the logarithm base ten of a concentration in moles per litre.

Query block: // query pIC50 value for entry N#C[C@H]1CCOC[C@@H]1n1cc(C(N)=O)c(Nc2ccc(Cl)c(Cl)c2)n1
Result block: 8.68
